- Test system: HepG2
- experiment: Cytotoxicity against adriamycin-resistant human HepG2 cells assessed as growth inhibition after 72 hrs by MTT assay
- Assay type: functional, cell-based
- details: HepG2, 72 h
Counter-ions that a name gives are not always drawn.
// log10(IC50) lookup, one value per entry
measured_parameter: log10(IC50) (log10 of the value in µM)

• Cc1cccc(/C=C/C2=Nc3ccccc3C2(C)C)c1 = 1.01
• CC1(C)C(/C=C/c2c[nH]c3c([N+](=O)[O-])cccc23)=Nc2ccccc21 = 0.60
• CC1(C)C(/C=C/c2cccc(C(F)(F)F)c2)=Nc2ccccc21 = 0.98
• COc1ccc(/C=C/C2=Nc3ccccc3C2(C)C)cc1OC = 1.46
• Cn1cc(/C=C/C2=Nc3ccccc3C2(C)C)c2ccccc21 = 1.27
• CN(C)c1ccc(/C=C/C2=Nc3ccccc3C2(C)C)cc1 = 1.34
• CC1(C)C(/C=C/c2c[nH]c3cc(F)ccc23)=Nc2ccccc21 = 1.17
• CC1(C)C(/C=C/c2c[nH]c3ccc(Br)cc23)=Nc2ccccc21 = 0.96
• COc1ccccc1/C=C/C1=Nc2ccccc2C1(C)C = 1.10
• COc1cccc(/C=C/C2=Nc3ccccc3C2(C)C)c1 = 1.00
• CC1(C)C(/C=C/c2ccc([N+](=O)[O-])cc2)=Nc2ccccc21 = 0.40
• CC[C@]1(O)C[C@@H]2CN(CCc3c([nH]c4ccccc34)[C@@](C(=O)OC)(c3cc4c(cc3OC)N(C)[C@H]3[C@@](O)(C(=O)OC)[C@H](OC(C)=O)[C@]5(CC)C=CCN6CC[C@]43[C@@H]65)C2)C1 [VINBLASTINE SULFATE] = -1.25
• CC1(C)C(/C=C/c2cccc([N+](=O)[O-])c2)=Nc2ccccc21 = 0.36
• CC1(C)C(/C=C/c2ccc(C(F)(F)F)cc2)=Nc2ccccc21 = 0.90
• COc1cc(/C=C/C2=Nc3ccccc3C2(C)C)cc(OC)c1OC = 1.03
• CC1(C)C(/C=C/c2c[nH]c3cc(Cl)ccc23)=Nc2ccccc21 = 1.00
• CC1(C)C(/C=C/c2c[nH]c3cccc(C#N)c23)=Nc2ccccc21 = 0.50
• Cc1ccc2[nH]cc(/C=C/C3=Nc4ccccc4C3(C)C)c2c1 = 0.79

Source listed as ChEMBL document CHEMBL2434943.
